Reference source: the supplement of paper PMC13380429

Test system: Caco-2
Assay: drug sensitivity score (DSS) for viability; higher = more toxic; extreme values may be limits of the assay
Settings: 72 h
attributeMeasured: drug sensitivity score
The answer should be a number; do not append a unit.

molecule	attributeMeasured	observedValue
CC(C)n1nc(-c2ccc3oc(N)nc3c2)c2c(N)ncnc21	drug sensitivity score	23.2
CC(=O)N[C@H]1[C@H]([C@H](O)[C@H](O)CO)OC(O)(C(=O)O)C[C@@H]1O (mixture of isomers)	drug sensitivity score	0
C[C@]12CC/C(=N\OCCN)C[C@@H]1C(=O)C[C@@H]1[C@@H]2CC[C@]2(C)C(=O)CC[C@@H]12	drug sensitivity score	2.1
CCCCCCCNS(=O)(=O)c1cccc2c(Cl)cccc12	drug sensitivity score	0

Challenge: Look at this molecule and give its reported drug sensitivity score. Oc1c(I)cc(Cl)c2cccnc12
Response given: 0.2

Challenge: Look at this molecule and give its reported drug sensitivity score. CCOC(=O)c1ccc(NC2CCCCC2)c(N)c1
Response given: 0.1

Challenge: Look at this molecule and give its reported drug sensitivity score. COc1cc(C(=O)NC2CCN(C)CC2)c(F)cc1Nc1ncc2c(n1)N(C1CCCC1)CC(F)(F)C(=O)N2C
Response given: 10.9

Challenge: Look at this molecule and give its reported drug sensitivity score. Oc1nc(O)c2nc(O)[nH]c2n1
Response given: 0
